test: Oral bioavailability in fasted Beagle dog at 0.5 mg/kg
Assay type: ADME, organism-based, Canis lupus familiaris
conditions used: in vivo
Listed next: entries and their corresponding bioavailability.
outcome measure: bioavailability (%)

>>> test_result("O=C(O)CCNC(=O)c1ccc(CN(c2ccc(Cl)cc2)c2nc(-c3ccc(C(F)(F)F)cc3)cs2)cc1")
16
>>> test_result("O=C(O)CCNC(=O)c1ccc(CN(c2ccc(C(F)(F)F)cc2)c2nc(-c3ccc(Cl)cc3)cs2)cc1")
141
>>> test_result("O=C(O)CCNC(=O)c1ccc(CN(c2ccc3c(c2)CCCC3)c2nc(-c3ccc(Cl)c(Cl)c3)cs2)cc1")
92
>>> test_result("O=C(O)CCNC(=O)c1ccc(CN(c2ccc(Cl)cc2)c2nc(-c3ccc(OC(F)(F)F)cc3)cs2)cc1")
71
>>> test_result("O=C(O)CCNC(=O)c1ccc(CN(c2ccc(OC(F)(F)F)cc2)c2nc(-c3ccc(C(F)(F)F)cc3)cs2)cc1")
55
